system: SARS-CoV-2 B.1.1.7 lineage; assay: microbe, parasite or virus in culture; type: cell-based; conditions: Severe acute respiratory syndrome coronavirus 2; Table C; SARS-CoV-2 B.1.1.7 in A549-dual_ACE2_TMPRSS2 cells, class symbols; read-out: A549-dual_ACE2_TMPRSS2 (EC50)
pEC50: −log10 of the molar value.
Measure: pEC50

smiles_string=CN(C(=O)c1cc2c(F)cc(F)c(F)c2[nH]1)[C@@H](CC1CC1)C(=O)N1C[C@@]2(C[C@H]1C#N)Oc1cccnc1NC2=O target_or_system="SARS-CoV-2 B.1.1.7 lineage" test_value="6.00 to 7.00"
smiles_string=CN(C(=O)[C@H](CC1CC1)NC(=O)C(F)(F)F)[C@@H](CC1CC1)C(=O)N1C[C@@]2(C[C@H]1C#N)Oc1ccc(F)cc1CNC2=O target_or_system="SARS-CoV-2 B.1.1.7 lineage" test_value="6.00 to 7.00"
smiles_string=CN(C(=O)[C@@H](NC(=O)C(F)(F)F)C1CC(F)(F)C1)[C@@H](CC1CC1)C(=O)N1C[C@@]2(C[C@H]1C#N)Oc1cccnc1NC2=O target_or_system="SARS-CoV-2 B.1.1.7 lineage" test_value="6.00 to 7.00"
smiles_string=CC(C)C[C@@H](C(=O)N1C[C@]2(CCCNC2=O)C[C@H]1C#N)N(C)C(=O)[C@H](C)NC(=O)C(F)(F)F target_or_system="SARS-CoV-2 B.1.1.7 lineage" test_value="6.00 to 7.00"
smiles_string=CN(C(=O)[C@@H](NC(=O)C(F)(F)F)C(C)(C)C)[C@@H](CC1CC1)C(=O)N1C[C@@]2(C[C@H]1C#N)Oc1cc(F)cc(F)c1NC2=O target_or_system="SARS-CoV-2 B.1.1.7 lineage" test_value="6.00 to 7.00"
smiles_string=CC(C)C[C@@H](C(=O)N1C[C@]2(C[C@H]1C#N)OC(=O)Nc1ccccc12)N(C)C(=O)c1cc2c(F)cc(F)cc2[nH]1 target_or_system="SARS-CoV-2 B.1.1.7 lineage" test_value="5.00 to 6.00"
smiles_string=CC[C@H](NC(=O)C(F)(F)F)C(=O)N(C)[C@@H](CC1CC1)C(=O)N1C[C@@]2(C[C@H]1C#N)Oc1cc(F)cc(F)c1NC2=O target_or_system="SARS-CoV-2 B.1.1.7 lineage" test_value="> 7.00"
smiles_string=CN(C(=O)[C@H](CC1CC1)NC(=O)C(F)(F)F)[C@@H](CC1CC1)C(=O)N1C[C@@]2(C[C@H]1C#N)Oc1c(F)ccc(F)c1NC2=O target_or_system="SARS-CoV-2 B.1.1.7 lineage" test_value="> 7.00"
smiles_string=C[C@H](NC(=O)C(F)(F)F)C(=O)N(C)[C@@H](CC1CC1)C(=O)N1C[C@@]2(C[C@H]1C#N)Oc1cc(F)cc(F)c1NC2=O target_or_system="SARS-CoV-2 B.1.1.7 lineage" test_value="6.00 to 7.00"
smiles_string=CN(C(=O)[C@H](CC1(C)CCC1)NC(=O)C(F)(F)F)[C@@H](CC1CC1)C(=O)N1C[C@@]2(C[C@H]1C#N)Oc1ncccc1NC2=O target_or_system="SARS-CoV-2 B.1.1.7 lineage" test_value="> 7.00"
smiles_string=CC(C)C[C@@H](C(=O)N1C[C@@]2(C[C@H]1C#N)Oc1cc(F)c(F)cc1NC2=O)N(C)C(=O)[C@H](C)NC(=O)C(F)(F)F target_or_system="SARS-CoV-2 B.1.1.7 lineage" test_value="6.00 to 7.00"
smiles_string=CN(C(=O)[C@H](CC1CC1)NC(=O)C1(F)CC1)[C@@H](CC1CC1)C(=O)N1C[C@@]2(C[C@H]1C#N)Oc1ncccc1NC2=O target_or_system="SARS-CoV-2 B.1.1.7 lineage" test_value="6.00 to 7.00"
